Field: inhibitory rate (%). Provide a value for each of the binders that follow.
subjectOfTest: T1, biotinylated hBLyS-ECD (human, UniProt Q9Y275 134-285, biotinylated with Biotin-X-X-NHS (molar ratio 7:1); sites not stated)
T1 construct: also called biotinylated immunogen; biotinylated hBLvS-ECD
experimentalDetails: competition ELISA; competitor 93C6F10D3
The response must be a number in % with no trailing unit.

Value of inhibitory rate (%) reported for the binder 78C11D2D12 (antibody, V domains shown, Mouse hybridoma antibody purified on Protein G) VH: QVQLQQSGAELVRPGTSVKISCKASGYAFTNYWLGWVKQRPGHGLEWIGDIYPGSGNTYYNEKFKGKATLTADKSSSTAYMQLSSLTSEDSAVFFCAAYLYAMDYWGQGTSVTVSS VL: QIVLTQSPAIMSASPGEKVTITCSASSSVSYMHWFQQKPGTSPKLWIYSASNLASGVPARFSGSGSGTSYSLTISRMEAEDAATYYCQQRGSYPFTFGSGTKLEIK is 58

Value of inhibitory rate (%) reported for the binder 97A3C2H4 (antibody, V domains shown, Mouse hybridoma antibody purified on Protein G) VH: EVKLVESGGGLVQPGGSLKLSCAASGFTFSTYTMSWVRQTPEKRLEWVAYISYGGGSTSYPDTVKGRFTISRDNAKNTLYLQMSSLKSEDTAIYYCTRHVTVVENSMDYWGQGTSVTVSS VL: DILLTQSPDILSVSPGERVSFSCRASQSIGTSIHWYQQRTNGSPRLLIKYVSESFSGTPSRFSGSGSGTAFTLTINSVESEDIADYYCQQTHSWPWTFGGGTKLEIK is 93

Value of inhibitory rate (%) reported for the binder 8E7D9C7F5 (antibody, V domains shown, Mouse hybridoma antibody purified on Protein G) VH: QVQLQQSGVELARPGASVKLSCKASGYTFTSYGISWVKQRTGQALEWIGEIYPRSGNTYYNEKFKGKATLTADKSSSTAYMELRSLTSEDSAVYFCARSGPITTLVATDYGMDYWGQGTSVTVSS VL: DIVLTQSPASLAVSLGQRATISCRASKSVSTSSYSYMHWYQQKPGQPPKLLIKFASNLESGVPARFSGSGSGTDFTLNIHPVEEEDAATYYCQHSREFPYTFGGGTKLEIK is 85

Value of inhibitory rate (%) reported for the binder 111D10D6G3 (antibody, V domains shown, Mouse hybridoma antibody purified on Protein G) VH: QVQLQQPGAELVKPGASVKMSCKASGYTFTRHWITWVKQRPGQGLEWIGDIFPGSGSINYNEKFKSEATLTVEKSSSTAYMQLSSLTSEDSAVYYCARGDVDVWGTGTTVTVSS VL: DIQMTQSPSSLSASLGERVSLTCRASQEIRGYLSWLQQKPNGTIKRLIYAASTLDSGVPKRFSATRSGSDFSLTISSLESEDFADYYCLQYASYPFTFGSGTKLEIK is 41

Value of inhibitory rate (%) reported for the binder 93C6F10D3 (antibody, V domains shown, Mouse hybridoma antibody purified on Protein G) VH: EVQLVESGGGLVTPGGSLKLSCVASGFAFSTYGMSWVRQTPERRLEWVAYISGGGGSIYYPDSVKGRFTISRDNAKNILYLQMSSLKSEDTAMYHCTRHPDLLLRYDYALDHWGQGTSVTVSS VL: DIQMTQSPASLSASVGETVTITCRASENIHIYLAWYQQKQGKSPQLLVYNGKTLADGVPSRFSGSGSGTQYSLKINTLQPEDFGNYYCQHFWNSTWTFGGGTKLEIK is 79

Value of inhibitory rate (%) reported for the binder 67A2E1D10 (antibody, V domains shown, Mouse hybridoma antibody purified on Protein G) VH: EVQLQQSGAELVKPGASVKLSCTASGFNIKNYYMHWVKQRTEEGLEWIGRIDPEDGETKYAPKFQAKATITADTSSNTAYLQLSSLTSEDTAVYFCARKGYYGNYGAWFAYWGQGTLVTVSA VL: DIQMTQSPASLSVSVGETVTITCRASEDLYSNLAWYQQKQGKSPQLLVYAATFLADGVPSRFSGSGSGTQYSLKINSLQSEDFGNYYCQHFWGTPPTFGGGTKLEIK is 44

Value of inhibitory rate (%) reported for the binder 35E6F7C3 (antibody, V domains shown, Mouse hybridoma antibody purified on Protein G) VH: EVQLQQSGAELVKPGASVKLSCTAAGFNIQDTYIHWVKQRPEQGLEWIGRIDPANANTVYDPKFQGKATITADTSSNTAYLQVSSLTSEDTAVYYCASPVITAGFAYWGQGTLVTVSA VL: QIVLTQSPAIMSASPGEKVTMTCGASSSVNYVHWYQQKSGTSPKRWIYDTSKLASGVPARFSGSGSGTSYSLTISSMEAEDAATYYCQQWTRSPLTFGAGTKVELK is 33
